Assay notes: RAM signaling pathway blockade in yeast – S. cerevisiae, Pdr1DBD-CYC8 efflux-inhibited sensitized strain, primary screen (AID 1298);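 note: 0% = DMSO untreated cells without growth and 100% = 10 µM 1-NA-PP1 full growth; higher means more yeast growth rescued from 5-FOA killing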
Condition summary: S. cerevisiae cbk1-as DSE1-URA3 strain, 5-FOA growth OD615, 2 d; at 50 µM; active compounds read high
RAM network inhibition values by entry
Give your result in % as a bare value.

Example compounds with recorded RAM network inhibition:
O=C(NCC1CCCO1)c1ccc2nc(N3CCCCC3)sc2c1 (centres undefined)	1.03
Cc1c(C(=O)NCc2cccnc2)oc2ccc(S(=O)(=O)N3CC(C)CC(C)C3)cc12 (centres undefined)	2.77
O=C1c2ccccc2C(Nc2ccc3c(c2)OCCO3)N1c1ccc(Cl)cn1 (centres undefined)	9.61

Pending compound:
Reported RAM network inhibition for OC(CN1c2ccccc2Sc2ccccc21)Cn1nnc2ccccc21 (centres undefined) : what is it?
10.2
